B1: Mineralocorticoid receptor, residues 600 to 675; numbered along this chain, P08235 (parent)
chain: SKICLVCGDEASGCHYGVVTCGSCKVFFKRAVEGQHNYLCAGRNDCIIDKIRRKNCPACRLQKCLQAGMNLGARKS

- Variants of: B1
- assayComment: abundance fitness (aPCA) (normalised: wild type 0, dead -1); higher = more abundant; growth selection in yeast, the domain comes from the species named
- runParameters: Homo sapiens
Rule: abundance fitness under -0.05 gives -1, otherwise 1.

Worked cases, answers included:
>  <orderedResidues>
SKICLVCGDEASGNHYGVVTCGSCKVFFKRAVEGQHNYLCAGRNDCIIDKIRRKNCPACRLQKCLQAGMNLGARKS

>  <qualitativeLabel>
1

$$$$
>  <orderedResidues>
SKICLVCGDEASGCHYGVVTCGSCKVFFKRAVEGQHNYLEAGRNDCIIDKIRRKNCPACRLQKCLQAGMNLGARKS

>  <qualitativeLabel>
-1

$$$$
>  <orderedResidues>
SKICLVCGDEASGCHDGVVTCGSCKVFFKRAVEGQHNYLCAGRNDCIIDKIRRKNCPACRLQKCLQAGMNLGARKS

>  <qualitativeLabel>
1

$$$$

Quick check: does "SKIALVCGDEASGCHYGVVTCGSCKVFFKRAVEGQHNYLCAGRNDCIIDKIRRKNCPACRLQKCLQAGMNLGARKS" have abundance fitness greater than or equal to -0.05?
-1

Quick check: does "SKICLVCGDEASGCHYGVVTCGSCKVIFKRAVEGQHNYLCAGRNDCIIDKIRRKNCPACRLQKCLQAGMNLGARKS" have abundance fitness greater than or equal to -0.05?
-1
